Where these numbers come from: patent US6858640B2

assayed-target: 5HT6 (Homo sapiens)
Construct: expressed in transfected cells; host or cells: HEK293
Sequence (P50406 whole entry, species assumed): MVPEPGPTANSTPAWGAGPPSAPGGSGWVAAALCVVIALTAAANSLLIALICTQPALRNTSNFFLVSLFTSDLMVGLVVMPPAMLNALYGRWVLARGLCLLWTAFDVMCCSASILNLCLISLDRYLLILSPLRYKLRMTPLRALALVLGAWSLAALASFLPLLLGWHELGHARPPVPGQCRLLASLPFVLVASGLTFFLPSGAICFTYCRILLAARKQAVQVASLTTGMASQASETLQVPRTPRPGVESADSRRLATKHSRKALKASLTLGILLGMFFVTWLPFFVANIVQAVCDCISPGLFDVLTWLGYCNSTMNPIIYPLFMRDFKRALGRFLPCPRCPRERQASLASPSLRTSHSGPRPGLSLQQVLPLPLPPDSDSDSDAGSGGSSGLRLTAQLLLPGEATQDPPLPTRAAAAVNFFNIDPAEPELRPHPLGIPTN
test-details: radioligand binding to serotonin receptor, cell membrane sample, Ki by Cheng-Prusoff
pKi: −log10 of the molar value.
measure-name: pKi

{"columns": ["compound", "reported-measurement"],
 "data": [
  ["CNC1COc2c(Br)ccc3[nH]cc(c23)C1 (stereo not drawn)", 8.34],
  ["CN(C)C1COc2cccc3c2c(cn3S(=O)(=O)/C=C/c2ccccc2)C1 (stereo not drawn)", 7.66],
  ["C=Cc1ccc2[nH]cc3c2c1OCC(N(C)C)C3 (stereo not drawn)", 7.49]
]}
